# PROTOCOL SUMMARY: Stability in liver microsomes
# Type: in vitro ADME
# CONDITION INFO: 2 μM peptidomimetic, human liver microsomes, 37° C., 24 h
METRIC: % degradation of peptidomimetics in 24 h when incubated with liver microsomes
Output should be the measured figure followed by the unit it is expressed in.

{"COMPOUND": "CCc1cc(OC)ccc1-c1ccc(CC(CNC(CCCc2ccccc2)C(N)=O)NC(=O)[C@H](CC(=O)O)NC(=O)[C@H](CO)NC(=O)[C@@H](NC(=O)C(C)(Cc2ccccc2F)NC(=O)[C@@H](NC(=O)CNC(=O)[C@H](CC(C(F)(F)F)C(F)(F)F)NC(=O)C(C)(C)NC(=O)[C@@H](N)Cc2c[nH]cn2)[C@H](C)O)[C@H](C)O)cc1 (stereo partly drawn) [compound 215]", "RESULT VALUE": "32%"}
{"COMPOUND": "CCc1cc(OC)ccc1-c1ccc(CC(CNC(CCCc2ccccc2)C(N)=O)NC[C@H](CC(=O)O)NC(=O)[C@H](CO)NC(=O)[C@@H](NC(=O)C(C)(Cc2ccccc2F)NC(=O)[C@@H](NC(=O)CNC(=O)[C@H](CCC(N)=O)NC(=O)C(C)(C)NC(=O)[C@H](Cc2c[nH]cn2)NC(=O)OC)[C@H](C)O)[C@H](C)O)cc1 (single isomer, unassigned) [compound 198]", "RESULT VALUE": "82%"}
{"COMPOUND": "CCc1cc(OC)ccc1-c1ccc(CC(NC(=O)[C@H](CC(=O)O)NC(=O)[C@H](CO)NC(=O)[C@@H](NC(=O)C(C)(Cc2ccccc2F)NC(=O)[C@@H](NC(=O)CNC(=O)C(CCC#N)NC(=O)C(C)(C)NC(=O)[C@H](Cc2c[nH]cn2)NC(=O)OC)[C@@H](C)O)[C@@H](C)O)C(=O)NC(CCCc2ccccc2)C(N)=O)cc1 (single isomer, unassigned) [compound 206]", "RESULT VALUE": "32%"}

**Q:** Given the compound CCc1cc(OC)ccc1-c1ccc(CC(NC(=O)[C@H](CC(=O)O)NC(=O)[C@H](CO)NC(=O)[C@@H](NC(=O)[C@H](Cc2ccccc2)NC(=O)[C@@H](NC(=O)CNC(=O)[C@H](CCC(N)=O)NC(=O)[C@H](CO)NC(=O)[C@@H](N)Cc2c[nH]cn2)[C@@H](C)O)[C@@H](C)O)C(=O)NC(CCCc2ccccc2F)C(N)=O)cc1 (single isomer, unassigned) [compound 45] , what is its reported % degradation of peptidomimetics in 24 h when incubated with liver microsomes?
**A:** 100%

**Q:** Would you mind telling me what % degradation of peptidomimetics in 24 h when incubated with liver microsomes value was observed for CCc1cc(OC)ccc1-c1ccc(CC(NC(=O)[C@H](CC(=O)O)NC(=O)[C@H](CO)NC(=O)[C@@H](NC(=O)[C@H](Cc2ccccc2)NC(=O)[C@@H](NC(=O)CNC(=O)[C@H](CCC(N)=O)NC(=O)C(C)(C)NC(=O)[C@@H](N)Cc2c[nH]cn2)[C@@H](C)O)[C@@H](C)O)C(=O)NC(CCCc2ccc(OC)cc2Cl)C(N)=O)cc1 (single isomer, unassigned) [compound 68] ?
**A:** 83%

**Q:** Recorded % degradation of peptidomimetics in 24 h when incubated with liver microsomes for CCc1cc(OC)ccc1-c1ccc(CC(C(=O)N(C)C(CCCc2ccccc2)C(N)=O)N(C)C(=O)[C@H](CC(=O)O)NC(=O)[C@H](CO)NC(=O)[C@@H](NC(=O)C(C)(Cc2ccccc2F)NC(=O)[C@@H](NC(=O)CNC(=O)C(CCC#N)NC(=O)C(C)(C)NC(=O)[C@@H](N)Cc2c[nH]cn2)[C@H](C)O)[C@H](C)O)cc1 (single isomer, unassigned) [compound 142] , please?
**A:** 82%
